- System: SF-539 CNS
- ASSAY_DETAILS: NCI-60 one-dose screen, 48 h (100 = growth as untreated, 0 = no growth, -100 = all killed)
- CONDITION_LABEL: 10 µM unless noted
The panel holds about 83,000 compounds, 20% with a hit somewhere; the sample as a whole holds those more often.
Binary call on growth: Satisfied from 90% upward, Not satisfied beneath that.

Illustrative cases are given below, each with its answer.
Cc1ccc(S(=O)(=O)NN/C(N)=N\S(=O)(=O)c2cc(C)c(Cl)cc2SCc2ccccc2)cc1    Not satisfied
COc1cc(NC(=O)c2cccc(-c3cc(=O)c4c(O)c(OC)c(OC)cc4o3)c2)cc(OC)c1OC    Not satisfied
O=C(CC1Sc2ccccc2NC1=O)NNc1ccc(F)cc1 (stereo unspecified)    Satisfied

Enquiry: Reported growth reaches at least 90% for "CCN(CC)CCCNC(=O)c1ccc(N)cc1" ?
Return: Satisfied

Enquiry: Decide: is the reported value of growth for "COc1ccc(OC)c(Nc2nc3nonc3nc2Nc2cccc(Br)c2)c1" equal to or greater than 90%?
Return: Not satisfied

Enquiry: Item N=c1ccn2c(n1)OC1C(O)C(CO)OC12 (stereo unspecified) with growth of 90% or above?
Return: Not satisfied

Enquiry: Does the molecule COc1ccc(C2CC(c3cnccn3)=NN2)cc1OC (stereo unspecified) have recorded growth that is 90% or more?
Return: Satisfied

Enquiry: Decide: growth of "COc1ccc(OC)c(C(=O)Nc2cccc(-c3cc(=O)c4ccccc4o3)c2)c1" >= 90%?
Return: Not satisfied

Enquiry: Entry "COc1ccc(N=c2nc3sc4cc(Cl)ccc4n3c(N)c2C#N)cc1" : is its growth no less than 90%?
Return: Satisfied

Enquiry: Decide: is the reported value of growth for O=c1[nH]c(=O)n(C2CC(O)C(CO)O2)cc1CO (stereo unspecified) equal to or greater than 90%?
Return: Satisfied

* * *

- System: OVCAR-8 ovarian
- ASSAY_DETAILS: NCI-60 one-dose screen, 48 h
- CONDITION_LABEL: 10 µM unless noted
- Experimental: Growth inhibition of the OVCAR-8 human tumor cell line is measured as a screen for anti-cancer activity. Cells are grown in 96 well plates and exposed to the test compound for 48 hours. Compounds are tested at a single concentration, which is 10^-5 M for most compounds. The reported endpoint is percent growth (GI% or GIPRCNT), where numbers from 0 - 100% represent growth inhibition, and numbers from -100% - 0 represent cell death. For example, a value of 40 represents 60% growth inhibition. […]
This is part of a sample that, as a whole, favours compounds with a hit. Of some 83,000 tested, about 20% had one in any assay. Activity calls are given as the source filed them. The calls were made as follows: active = growth percent below 10; inactive = the rest.
Use one of these outcomes when replying: yes for active, no for inactive

Enquiry: Would you mind telling me which call this test gave "CC(=O)C(C(C)=O)c1nc2sc3cc(Cl)ccc3n2c(=N)c1C#N" ?
Return: no

Enquiry: Can you look up the reported call for "O=S(=O)(Cc1ccccc1)c1nc2ccccc2s1" for me?
Return: no

Enquiry: Recorded test call requested for "CCNCCNc1cc(-c2ccc(Cl)cc2)c(C#N)c2nc3ccccc3n12"
Return: no

Enquiry: Status in this test for Nc1ccn(C2OC(F)(CO)C(O)C2F)c(=O)n1 (stereo not drawn) ?
Return: no

Enquiry: Which outcome was entered for the molecule "Cc1cc(=O)c2cc3nc(-c4cccnc4)oc3c(Br)c2o1" in this test?
Return: no

Enquiry: Outcome logged for "C=C1C(=O)O[C@H]2[C@H]1CC/C(COC(=O)NCc1ccc(Cn3c(=O)sn(CCCCl)c3=O)cc1)=C\CC[C@@]1(C)O[C@@H]21" in this assay:
Return: no

Enquiry: // param item: "C/C(=N\NC(N)=S)c1nc2ccc(Cl)cc2[nH]1" ; yields the recorded call
Return: no

Enquiry: Which result was noted for this molecule in the test: "Cc1ccc(Nc2ccc(Nc3ccc(C)cc3S(=O)(=O)O)c3c2C(=O)c2ccccc2C3=O)c(S(=O)(=O)O)c1"
Return: no

Enquiry: Please share the test call associated with "CC(=O)c1sc(-c2ccccc2)cc1N" .
Return: no

Enquiry: In this assay, the call recorded for "Clc1ccc2c(NCCCN3CCN(c4nc(-n5ccnc5)nc5ccccc45)CC3)ccnc2c1" was what?
Return: no

Enquiry: Recorded call for "CC1(C)N=C(N)N=C(N)N1c1ccc(Cl)c(Cl)c1" ?
Return: no

Enquiry: What outcome does the record of this test show for Nc1nc(I)c2ncn(C3OC(CO)C(O)C3O)c2n1 (stereo not drawn) ?
Return: no

* * *

Consider the following compounds and their measured growth readings.
- Test system: OVCAR-3 ovarian
- ASSAY_DETAILS: NCI-60 one-dose screen, 48 h (100 = growth as untreated, 0 = no growth, -100 = all killed)
- CONDITION_LABEL: 10 µM unless noted
This is part of a sample that, as a whole, favours compounds with a hit. Of some 83,000 tested, about 20% had one in any assay.
State just the number; it will be interpreted in %.

Sample records with growth:
COc1ccc(OC)c(Nc2nc3nonc3nc2Nc2cc(OC)ccc2OC)c1    26
CCCCCCCC/C=C/CCCCCCCC1=NCC[N+]1(CCO)CCO    59.9
C=CCN1C(=O)[C@]2(SC1=S)[C@H](c1cccc(Cl)c1)CN(C)[C@]21C(=O)NC2C=CC(Cl)=C[C@H]21 (stereo not given in full)    38.4
CC(=O)Nc1cccc(C2=CC(c3ccc(C)cc3)n3ncnc3N2)c1 (stereo not given)    101
CCCCCCN(CCCCCC)CC(O)c1cccc2ccc(Cl)cc12 (stereo not given)    63.2
O=C1c2ccccc2C2(c3ccc(O)cc3)c3ccccc3Oc3cccc1c32 (stereo not given)    11.2

Enquiry: Request the reported growth associated with "CC/C=C/[C@@H]1C=C[C@@H]2CCC[C@H]2[C@@H]1CC[C@H](O)[C@H](C)N"
Return: -64.8

Enquiry: Which growth is reported for this compound? "CCCc1nc2ccccn2c1Nc1ccc(C(=O)NO)cc1"
Return: 99.1

Enquiry: Suppose we examine the compound "C/C(=N\NC(=O)Cn1c(-c2ccc(S(C)(=O)=O)cc2)nc2cc(Cl)ccc21)c1ccc(Cl)cc1" ; what growth value has been reported?
Return: 79.7

Enquiry: Would you kindly share the measured growth for "CC1(C)N=C(N)N=C(N)N1c1ccc(Cl)c(Cl)c1" ?
Return: 53

* * *

Property: growth; scope: individual compounds
- Test system: SR leukemia
- ASSAY_DETAILS: NCI-60 one-dose screen, 48 h (100 = growth as untreated, 0 = no growth, -100 = all killed)
- CONDITION_LABEL: 10 µM unless noted
About 83,000 compounds went through this panel and 20% of them were active in at least one assay; those are over-represented in the sample as a whole.
Report the value in % with no unit label.

Cc1cc(C(c2ccccc2)c2ccccc2)ccc1NS(=O)(=O)c1ccccc1    74.7

Enquiry: Hi! What's the reported growth for "COc1ccc(-c2nnc(-c3ccc4c(c3)nc(-c3ccccc3)n4C3CCCCC3)o2)cc1" on SR leukemia?
Return: 58.3

Enquiry: Give growth (SR leukemia) of the following compound: "O=C1Nc2ccccc2/C1=N/N=C/c1c[nH]c2ccccc12"
Return: 67

Enquiry: Give recorded growth with SR leukemia for the following compound: "O=[N+]([O-])c1ccc(-c2cc3c(Nc4ccc(OCc5cccc(Cl)c5)c(Cl)c4)ncnc3s2)cc1"
Return: 48.9

Enquiry: Query growth on SR leukemia for "NS(=O)(=O)c1cnccc1-n1ccc(=O)c(S(N)(=O)=O)c1"
Return: 86.5

* * *

Measured growth values are reported for all entries that follow.
- Tested on: RPMI-8226 leukemia
- ASSAY_DETAILS: NCI-60 one-dose screen, 48 h (100 = growth as untreated, 0 = no growth, -100 = all killed)
- CONDITION_LABEL: 10 µM unless noted
About 83,000 compounds went through this panel and 20% of them were active in at least one assay; those are over-represented in the sample as a whole.
Respond numerically; units are % and should not be typed.

Worked cases, growth given:
CCNCCNc1cc(-c2ccc(C#N)cc2)c(C#N)c2nc3ccccc3n12    51.6
CC[C@@H](C[C@H](CCO)c1ccccc1)c1cc2ccccc2o1    90.8
C[C@@H]1C(=O)N(C[C@H](Cc2ccccc2)NC(=O)OCc2ccccc2)[C@]1(Cc1ccccc1)C(=O)OC(C)(C)C    41.3
CS(=O)(=O)c1ccc(-c2[nH]c3ccc(F)cc3c2/C=N/NC(N)=S)cc1    12

Next up:
Enquiry: Form field: reported growth of "CC(C)N(CCOC(=O)Nc1ccccc1Cl)C(C)C"
Return: 96

* * *

- Tested on: MDA-MB-435 melanoma
- ASSAY_DETAILS: NCI-60 one-dose screen, 48 h (100 = growth as untreated, 0 = no growth, -100 = all killed)
- CONDITION_LABEL: 10 µM unless noted
Compounds without any hit were thinned out: in the full panel of roughly 83,000, 20% have a hit.
Measured growth accompanies every entry in the list below.
Enter your answer as a number in %; do not include the unit.

O=C(/C=C/C12c3ccccc3C(c3ccccc31)C1C(=O)NC(=O)C12)c1ccc(Cl)cc1 (configuration not stated)    -19.4
CCNCCNc1cc(-c2ccc(C(F)(F)F)cc2)c(C#N)c2nc3cc(Cl)c(Cl)cc3n12    -92.6
CN1CCN(C(=O)[C@]23CCC(C)(C)C[C@@H]2C2=CC[C@@H]4[C@@]5(C)Cc6c([nH]c7ccccc67)C(C)(C)[C@@H]5CC[C@@]4(C)[C@]2(C)CC3)CC1    84.6

Enquiry: // fetch MDA-MB-435 melanoma growth for "Clc1ccc(/C=C/c2nc(Nc3ccc(Cl)cc3)c3ccccc3n2)cc1"
Return: 109
